Assay: Pharmacokinetics of crystalline form III, fasting and non-fasting
Type: in vivo, Beagle dog
Conditions: female, beagle, dog, whole blood, po, 100 mg/kg, 100 mg/kg po, fast, blood
experimental.readout: half-life (h)
Record the value in h, omitting the unit from your answer.

*Q* What does the data say about its half-life? Entry: COC(=O)N1CCO[C@@H](Cc2c(-c3c(F)cc(S(N)(=O)=O)cc3F)nc3cc(Cl)ccn23)C1 [Crystalline form III]
*A* 22.4

---

Assay: Pharmacokinetics of crystalline form III, fasting and non-fasting
Assay type: in vivo, Beagle dog
Conditions: male, beagle, dog, plasma, po, 100 mg/kg, 100 mg/kg po, fast, plasma, male; read-out: AUClast
experimental.readout: AUC(0-t) (ng·h/mL)
Record the value in ng·h/mL, omitting the unit from your answer.

*Q* What does the data say about its AUC(0-t)? Entry: COC(=O)N1CCO[C@@H](Cc2c(-c3c(F)cc(S(N)(=O)=O)cc3F)nc3cc(Cl)ccn23)C1 [Crystalline form III]
*A* 81400
